Record form. Attribute: inhibition at 0.1 µM. Fill in for each entry.
# target.entity: FAAH (Rattus norvegicus, UniProt P97612)
# Construct: Preparation of Rat Brain Membranes Preparations (FAAH Enzyme Solution); from tissue; host or cells: rat cerebrum (brain membrane preparation)
# Sequence (P97612 1-579): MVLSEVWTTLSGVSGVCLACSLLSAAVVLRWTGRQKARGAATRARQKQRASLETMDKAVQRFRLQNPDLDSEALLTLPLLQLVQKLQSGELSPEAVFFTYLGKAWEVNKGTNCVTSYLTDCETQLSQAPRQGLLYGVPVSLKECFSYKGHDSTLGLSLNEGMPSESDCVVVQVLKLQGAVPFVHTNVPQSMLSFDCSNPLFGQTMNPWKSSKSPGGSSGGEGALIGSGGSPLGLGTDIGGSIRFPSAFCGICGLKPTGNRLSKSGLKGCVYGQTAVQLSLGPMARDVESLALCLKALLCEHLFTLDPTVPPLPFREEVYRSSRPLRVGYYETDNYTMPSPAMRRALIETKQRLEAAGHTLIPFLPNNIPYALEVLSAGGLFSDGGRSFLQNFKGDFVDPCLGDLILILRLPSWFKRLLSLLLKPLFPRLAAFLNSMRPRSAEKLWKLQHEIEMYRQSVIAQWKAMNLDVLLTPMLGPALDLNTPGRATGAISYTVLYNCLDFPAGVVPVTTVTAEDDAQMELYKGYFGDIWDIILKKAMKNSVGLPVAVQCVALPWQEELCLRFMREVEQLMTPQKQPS
# test.method.notes: Determination of FAAH inhibitory activity in rat (rat brain membrane preparations, [3H]-anandamide hydrolysis)
# Type: biochemical
# assay.context: rat brain membrane preparations; 100 nM test substance; read-out: FAAH Inhibition, Inhibition Rate at 100 nM
Give bare numbers, in %.

Reference set (3 entries):
{"columns": ["compound", "inhibition at 0.1 µM / %"],
 "data": [
  ["COc1ccccc1Cc1ncc2c(n1)n(C)c(=O)n2C(=O)N1CCCC1 [compound 260]", 84],
  ["COCc1ncc2c(n1)n(C)c(=O)n2C(=O)N1CC[C@H](Oc2ccccc2C)C1 [Example 486]", 113],
  ["CCCc1cccc(CCc2ncc3c(n2)n(C(=O)N(C)C)c(=O)n3C)c1 [compound 518]", 107]
]}

With those in mind, consider the next compound.
Q. Any idea what inhibition at 0.1 µM was measured for COCCc1ncc2c(n1)n(C)c(=O)n2C(=O)N1CC(c2ccccc2)C1 [compound 389] ?
A. 105

====

# target.entity: FAAH (Rattus norvegicus)
# Construct: Preparation of Rat Brain Membranes Preparations (FAAH Enzyme Solution); from tissue; host or cells: rat cerebrum (brain membrane preparation)
# Sequence (P97612 1-579): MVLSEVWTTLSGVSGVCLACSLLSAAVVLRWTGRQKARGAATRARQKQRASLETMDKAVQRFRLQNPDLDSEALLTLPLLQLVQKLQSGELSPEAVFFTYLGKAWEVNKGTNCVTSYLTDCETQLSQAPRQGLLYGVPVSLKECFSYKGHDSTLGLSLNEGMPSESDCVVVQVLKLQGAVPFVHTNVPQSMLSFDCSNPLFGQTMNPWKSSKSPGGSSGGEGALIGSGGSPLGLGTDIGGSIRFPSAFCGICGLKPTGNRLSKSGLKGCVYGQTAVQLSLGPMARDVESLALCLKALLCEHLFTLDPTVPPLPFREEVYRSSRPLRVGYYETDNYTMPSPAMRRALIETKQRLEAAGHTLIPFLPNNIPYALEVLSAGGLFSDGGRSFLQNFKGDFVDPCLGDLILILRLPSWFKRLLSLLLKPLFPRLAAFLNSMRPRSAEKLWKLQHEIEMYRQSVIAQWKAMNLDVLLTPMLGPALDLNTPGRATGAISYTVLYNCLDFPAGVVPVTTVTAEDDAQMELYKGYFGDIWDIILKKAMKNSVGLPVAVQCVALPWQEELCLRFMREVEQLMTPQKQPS
# test.method.notes: Determination of FAAH inhibitory activity in rat (rat brain membrane preparations, [3H]-anandamide hydrolysis)
# Format: biochemical
# assay.context: rat brain membrane preparations; test substance 0.1 nM to 1 μM; read-out: FAAH Inhibition IC50
attribute.measured: IC50 (nM)
Answers are plain numbers, in nM.

Reference set (5 entries):
{"columns": ["cpd.smiles", "IC50 (nM)"],
 "data": [
  ["COc1cccc(-c2ncc3c(n2)n(C)c(=O)n3C(=O)N(C)CCN2CCOCC2)c1", 60],
  ["O=C(N1CCCC1)n1c(=O)n(CCO)c2nc(-c3ccccc3)ncc21", 46],
  ["CCc1ccc(CCc2ncc3c(n2)n(C(=O)N(C)C)c(=O)n3C)cc1", 10],
  ["CN(C)C(=O)n1c(=O)n(C)c2cnc(CCc3cc(F)c(F)c(F)c3)nc21", 6],
  ["COc1ccccc1-c1ncc2c(n1)n(C)c(=O)n2C(=O)N1CCCC1", 69]
]}

Hi team, please reply with IC50 for each item in this list.
1. COc1cccc(-c2ncc3c(n2)n(C)c(=O)n3C(=O)N2CCN(c3ccc(Cl)cc3)CC2)c1
2. CCCOCc1ncc2c(n1)n(C)c(=O)n2C(=O)N1CC(c2ccc(F)cc2)C1

A.
5
2

====

# target.entity: FAAH (Rattus norvegicus, UniProt P97612)
# Construct: Preparation of Rat Brain Membranes Preparations (FAAH Enzyme Solution); from tissue; host or cells: rat cerebrum (brain membrane preparation)
# Sequence (P97612 1-579): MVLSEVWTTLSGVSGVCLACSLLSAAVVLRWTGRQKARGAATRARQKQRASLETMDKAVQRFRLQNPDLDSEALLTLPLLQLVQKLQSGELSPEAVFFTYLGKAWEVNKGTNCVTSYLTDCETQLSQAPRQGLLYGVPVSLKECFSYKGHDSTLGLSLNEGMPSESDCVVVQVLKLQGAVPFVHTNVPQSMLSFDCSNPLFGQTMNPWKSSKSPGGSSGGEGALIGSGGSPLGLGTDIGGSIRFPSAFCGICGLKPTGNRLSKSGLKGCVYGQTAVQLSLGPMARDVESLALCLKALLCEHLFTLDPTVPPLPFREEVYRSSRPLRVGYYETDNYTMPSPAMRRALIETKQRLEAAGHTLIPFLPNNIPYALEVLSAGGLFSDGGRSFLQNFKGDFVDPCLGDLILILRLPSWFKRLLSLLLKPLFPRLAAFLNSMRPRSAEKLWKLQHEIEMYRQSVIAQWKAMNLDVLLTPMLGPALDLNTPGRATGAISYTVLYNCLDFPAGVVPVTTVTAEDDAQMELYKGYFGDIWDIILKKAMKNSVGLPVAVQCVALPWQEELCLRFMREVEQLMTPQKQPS
# test.method.notes: Determination of FAAH inhibitory activity in rat (rat brain membrane preparations, [3H]-anandamide hydrolysis)
# Assay type: biochemical
# assay.context: rat brain membrane preparations; 100 nM test substance; read-out: FAAH Inhibition, Inhibition Rate at 100 nM
Record form. Attribute: inhibition at 0.1 µM. Fill in for each entry.
Answers are plain numbers, in %.

Reference set (6 entries):
{"columns": ["cpd.smiles", "inhibition at 0.1 µM, %"],
 "data": [
  ["COc1ccc(CCC2CCN(C(=O)n3c(=O)n(C)c4nc(-c5cccc(OC)c5)ncc43)CC2)cc1", 103],
  ["Cc1ncc2c(n1)n(C)c(=O)n2C(=O)N(C)CCc1ccc(Cl)cc1", 103],
  ["Cc1ccccc1CCc1ncc2c(n1)n(C(=O)N1CCC1)c(=O)n2C", 57],
  ["CN(CCC1CCCCC1)C(=O)n1c(=O)n(C)c2nc(-c3ccncc3)ncc21", 105],
  ["CN(C)C(=O)n1c(=O)n(C)c2cnc(-c3cccc(OCC(F)(F)F)c3)nc21", 85],
  ["COc1ccc(CCc2ncc3c(n2)n(C(=O)N(C)C)c(=O)n3C)cc1", 122]
]}

Hi team, please reply with inhibition at 0.1 µM for each item in this list.
1. Cn1c(=O)n(C(=O)N2CCCC2)c2cnc(-c3ccc(Cl)cc3)nc21
2. CC(=O)c1cccc(-c2ncc3c(n2)n(C(=O)N2CCCC2)c(=O)n3C)c1
3. Cn1c(=O)n(C(=O)N2CCC2)c2nc(CCc3ccccc3F)ncc21
4. Cn1c(=O)n(C(=O)N2CCC2)c2cnc(COc3ccc(F)cc3)nc21
5. COCCCc1ncc2c(n1)n(C)c(=O)n2C(=O)N1CC(c2ccc(C(F)(F)F)cc2)C1
6. Cc1cc(CCc2ncc3c(n2)n(C(=O)N(C)C)c(=O)n3C)ccc1F
7. Cc1cccc(-c2ncc3c(n2)n(C)c(=O)n3C(=O)N2CCCC2)c1

A.
[99, 84, 87, 103, 100, 99, 98]

====

# target.entity: FAAH (Rattus norvegicus, UniProt P97612)
# Construct: Preparation of Rat Brain Membranes Preparations (FAAH Enzyme Solution); from tissue; host or cells: rat cerebrum (brain membrane preparation)
# test.method.notes: Determination of FAAH inhibitory activity in rat (rat brain membrane preparations, [3H]-anandamide hydrolysis)
# Assay type: biochemical
# assay.context: at 100 nM; rat brain membrane preparations; read-out: FAAH Inhibition Inhibition Rate at 100 nM
Record form. Attribute: inhibition at 0.1 µM. Fill in for each entry.

Reference set (3 entries):
{"columns": ["cpd.smiles", "inhibition at 0.1 µM"],
 "data": [
  ["Cn1c(=O)n(C(=O)N2CCC2)c2nc(CCc3ccc(OC(F)(F)F)cc3)ncc21", "108%"],
  ["CN(C)C(=O)n1c(=O)n(C)c2cnc(CCOc3ccc(C(F)(F)F)cc3)nc21", "95%"],
  ["CN(C)C(=O)n1c(=O)n(C)c2cnc(CCCc3ccccc3)nc21", "81%"]
]}

Hi team, please reply with inhibition at 0.1 µM for each item in this list.
1. CCCc1ncc2c(n1)n(C)c(=O)n2C(=O)N1CC(Oc2ccccc2CC)C1
2. CN(C)C(=O)n1c(=O)n(C)c2cnc(CCOc3cccc(C(F)(F)F)c3)nc21
3. CCCn1c(=O)n(C(=O)N2CC(c3ccc(F)cc3)C2)c2cnc(COC)nc21

A.
["48%", "89%", "112%"]

Hi team, please reply with inhibition at 0.1 µM for each item in this list.
1. COCc1ncc2c(n1)n(C1CC1)c(=O)n2C(=O)N1CC(c2cccc(F)c2)C1
2. CCCn1c(=O)n(C(=O)N2CC(c3cccc(F)c3)C2)c2cnc(COC)nc21

A.
["99%", "121%"]
